Target: Voltage-dependent L-type calcium channel subunit alpha-1C (Homo sapiens, UniProt Q13936)
Sequence (Q13936 whole entry): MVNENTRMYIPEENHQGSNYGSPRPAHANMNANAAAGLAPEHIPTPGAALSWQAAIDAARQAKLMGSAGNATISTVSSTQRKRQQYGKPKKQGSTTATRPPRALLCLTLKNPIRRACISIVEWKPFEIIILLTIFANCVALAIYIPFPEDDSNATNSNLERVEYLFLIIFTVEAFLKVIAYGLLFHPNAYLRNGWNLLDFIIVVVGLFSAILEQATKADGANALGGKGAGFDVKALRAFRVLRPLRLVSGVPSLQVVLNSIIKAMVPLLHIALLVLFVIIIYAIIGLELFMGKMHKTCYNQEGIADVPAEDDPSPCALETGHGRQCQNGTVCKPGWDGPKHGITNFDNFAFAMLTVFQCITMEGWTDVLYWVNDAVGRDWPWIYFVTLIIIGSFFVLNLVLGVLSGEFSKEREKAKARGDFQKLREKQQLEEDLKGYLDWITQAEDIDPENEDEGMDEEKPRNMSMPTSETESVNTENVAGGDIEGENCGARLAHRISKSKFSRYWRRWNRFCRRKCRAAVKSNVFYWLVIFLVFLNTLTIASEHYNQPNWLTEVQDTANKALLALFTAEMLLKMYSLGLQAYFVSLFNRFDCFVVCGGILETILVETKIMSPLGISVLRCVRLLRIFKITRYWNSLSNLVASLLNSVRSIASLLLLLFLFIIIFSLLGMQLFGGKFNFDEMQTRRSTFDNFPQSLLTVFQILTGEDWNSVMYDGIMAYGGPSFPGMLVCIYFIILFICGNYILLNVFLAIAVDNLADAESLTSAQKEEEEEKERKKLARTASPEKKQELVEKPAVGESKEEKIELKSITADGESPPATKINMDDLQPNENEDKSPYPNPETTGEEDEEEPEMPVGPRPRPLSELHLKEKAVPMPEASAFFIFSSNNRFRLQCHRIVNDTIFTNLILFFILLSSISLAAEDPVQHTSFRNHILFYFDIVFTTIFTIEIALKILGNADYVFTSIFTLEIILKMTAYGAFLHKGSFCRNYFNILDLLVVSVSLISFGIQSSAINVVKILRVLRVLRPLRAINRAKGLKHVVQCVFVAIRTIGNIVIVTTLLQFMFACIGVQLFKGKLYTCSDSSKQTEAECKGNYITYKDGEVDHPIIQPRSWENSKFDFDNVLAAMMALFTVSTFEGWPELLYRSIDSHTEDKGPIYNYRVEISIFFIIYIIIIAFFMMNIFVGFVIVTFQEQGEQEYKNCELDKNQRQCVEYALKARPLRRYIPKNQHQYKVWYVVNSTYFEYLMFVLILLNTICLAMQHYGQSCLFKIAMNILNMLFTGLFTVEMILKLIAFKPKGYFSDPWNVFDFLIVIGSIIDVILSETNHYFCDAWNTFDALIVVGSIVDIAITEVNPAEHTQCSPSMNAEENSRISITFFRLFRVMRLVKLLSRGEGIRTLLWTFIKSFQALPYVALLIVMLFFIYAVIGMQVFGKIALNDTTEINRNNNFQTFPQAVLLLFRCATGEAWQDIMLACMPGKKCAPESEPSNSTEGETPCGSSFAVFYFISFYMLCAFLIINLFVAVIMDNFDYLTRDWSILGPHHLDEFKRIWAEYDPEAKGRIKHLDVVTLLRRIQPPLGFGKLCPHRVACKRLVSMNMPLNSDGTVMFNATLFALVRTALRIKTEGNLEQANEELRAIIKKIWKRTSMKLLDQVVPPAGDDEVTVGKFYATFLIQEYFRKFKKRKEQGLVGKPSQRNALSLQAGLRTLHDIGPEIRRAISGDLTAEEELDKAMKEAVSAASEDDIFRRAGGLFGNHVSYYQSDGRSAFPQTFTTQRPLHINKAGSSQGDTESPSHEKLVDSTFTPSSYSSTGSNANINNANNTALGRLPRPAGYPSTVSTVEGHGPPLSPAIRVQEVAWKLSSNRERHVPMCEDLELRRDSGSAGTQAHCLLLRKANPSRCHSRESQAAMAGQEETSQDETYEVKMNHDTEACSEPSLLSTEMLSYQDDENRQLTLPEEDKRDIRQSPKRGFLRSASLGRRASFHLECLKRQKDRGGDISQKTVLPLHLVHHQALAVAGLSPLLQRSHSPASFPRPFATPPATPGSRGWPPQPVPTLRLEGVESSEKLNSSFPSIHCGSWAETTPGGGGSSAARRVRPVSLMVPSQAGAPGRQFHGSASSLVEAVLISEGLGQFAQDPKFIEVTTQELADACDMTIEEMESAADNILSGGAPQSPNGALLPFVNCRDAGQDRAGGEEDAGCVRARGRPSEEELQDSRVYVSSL
Assay: Block of Cav1.2 ion channel in functional assay (unknown origin)
readout.type: IC50

Task item: Which IC50 is reported for this molecule? Fc1cncc(-c2nc3cc(F)c(F)cc3n2C2CC2)c1
Reply: > 30 µM

* * *

Experiment: Plasma clearance in Sprague-Dawley rat at 2 mg/kg, po or 1 mg/kg, iv by LC-MS/MS method
Assay type: ADME, organism-based
Kindly supply the reported log10 of clearance values for the records listed here.
Quick note: numbers are log10 of clearance, with mL/min/kg as the unit.

Task item: Name the recorded log10 of clearance for Fc1cc2nc(-c3cccnc3)n(C3CC3)c2cc1F .
Reply: 1.63

Task item: I would be grateful if you could share the reported log10 of clearance for Fc1cncc(-c2nc3cc(F)c(F)cc3n2C2CC2)c1 .
Reply: 1.57

Task item: GET /values?readout=log10 of clearance&item= CC(C)(O)c1cncc(-c2nc3cc(F)c(F)cc3n2C2CC2)c1
Reply: 0.85

Task item: Please give the measured log10 of clearance for this molecule: CC1(n2c(-c3cccnc3)nc3ccc(F)cc32)CC1
Reply: 2.12

Task item: So what does the record say about log10 of clearance for Fc1ccc2nc(-c3cccnc3)n(C3CC3)c2c1 ?
Reply: 1.45

Task item: Query (molecule): CC(C)(O)c1cncc(-c2nc3ccc(F)cc3n2C2CC2)c1 ; field requested: log10 of clearance
Reply: 1.00

Task item: Bench note: what log10 of clearance did Cn1c(-c2cccnc2)nc2ccc(F)cc21 show?
Reply: 1.77

* * *

Assay: Fraction unbound in rat plasma at […] incubated for 4 hrs by equilibrium dialysis and LC/MS method
Format: ADME, cell-free
Give measured fraction unbound at 4 h for each item. Keep answers brief.
Note: the reply should be a number with no unit written.

Task item: Field request: fraction unbound at 4 h | item: Cn1c(-c2cccnc2)nc2ccc(F)cc21
Reply: 0.25

Task item: Sample Fc1cc2nc(-c3cccnc3)n(C3CC3)c2cc1F — what was its fraction unbound at 4 h?
Reply: 0.15

Task item: Reported fraction unbound at 4 h for Fc1ccc2nc(-c3cccnc3)n(C3CC3)c2c1 : what is it?
Reply: 0.15

Task item: // query fraction unbound at 4 h value for entry CC(C)(O)c1cncc(-c2nc3ccc(F)cc3n2C2CC2)c1
Reply: 0.13

Task item: I am curious: what fraction unbound at 4 h value has been reported for CC1(n2c(-c3cccnc3)nc3ccc(F)cc32)CC1 ?
Reply: 0.19

Task item: Give the measured fraction unbound at 4 h of CC(C)(O)c1cncc(-c2nc3cc(F)c(F)cc3n2C2CC2)c1 .
Reply: 0.14

Task item: Which fraction unbound at 4 h value is on record for Fc1cncc(-c2nc3cc(F)c(F)cc3n2C2CC2)c1 ?
Reply: 0.14

* * *

Record form. Attribute: CLint scaled. Fill in for each entry.
Assay: Intrinsic clearance in rhesus monkey liver microsomes at […] incubated for 10 mins before NADPH addition by LC/MS method
Format: ADME, Macaca mulatta
Settings: read-out: CLH

Task item: Value lookup for CLint scaled; key = Cc1c(F)cncc1-c1nc2cc(F)c(F)cc2n1C1CC1
Reply: < 20 mL/min/kg

Task item: Give its CLint scaled value. Item: Fc1cncc(-c2nc3cc(F)c(F)cc3n2C2CC2)c1
Reply: < 20 mL/min/kg

Task item: State the recorded CLint scaled for this entry: CC(C)(O)c1cncc(-c2nc3ccc(F)cc3n2C2CC2)c1
Reply: 22 mL/min/kg
